Catalogue of binders with associated mGITR-His/BKG
Biological target: T1, mouse His6-GITR (mouse, UniProt O35714 20-153)
T1 construct: His6-tagged recombinant protein; also called mGITR-His; mouse GITR-His
T1 sequence: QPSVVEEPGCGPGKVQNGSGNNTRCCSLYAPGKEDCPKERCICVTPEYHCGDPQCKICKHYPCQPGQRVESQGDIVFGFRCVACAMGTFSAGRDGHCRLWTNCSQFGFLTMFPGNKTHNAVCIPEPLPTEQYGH
Assay: ELISA, scFv periplasmic extract on coated His6-GITR
Report only the number, with the unit fold over background understood.

Would you please look over these solved cases?
binder="GITR-Mab-32 scFv (scFv, V domains shown, scFv in periplasmic extract, V5 tag) VH: QVQLVQSGAEVKKPGASVKVSCKASGGTFSSYAISWVRQAPGQGLEWMGWMNPNSGDTGYAQKFQGRVTMTRDTSTSTVYMELSSLRSEDTAVYYCARGPWYFDLWGRGTLVTVSS VL: DIQMTQSPSSLSASVGDRVTITCRVSQGISNSLAWYQQKPGKAPKLLIYAASSLQSGVPSRFSGSGSGTDFTLTISSLQPEDFATYYCQQSYSTVYTFGQGTKLEIK" measured_metric=mGITR-His/BKG unit_text="fold over background" quantitative_result=1
binder="GITR-Mab-27 scFv (scFv, V domains shown, scFv in periplasmic extract, V5 tag) VH: QVQLVQSGAEVKKPGASVKVSCKASGYTFTSYDINWVRQAPGQGLEWIGWMNTNSGDTGYAQKFQGRVTMTRDTSTSTVYMELSSLRSEDTAVYYCARQAYSSSWYWYGWFDPWGQGTLVTVSS VL: DIQMTQSPSSLSASVGDRVTITCQASHDIDNYLNWYQQKPGKAPKLLIYAASNLQSGVPSRFSGSGSGTDFTLTISSLQPEDFATYYCQQANSFPLTFGPGTKVDIK" measured_metric=mGITR-His/BKG unit_text="fold over background" quantitative_result=1.3

Turning now to a further record.
Recorded mGITR-His/BKG of GITR-Mab-44 scFv (scFv, V domains shown, scFv in periplasmic extract, V5 tag) VH: QVQLVQSGAEVKKPGASVKVSCKASGYTFTSHDIDWVRQAPGQGLEWMGWINPSGDSTSYAQKFQGRVTMTRDTSTSTVYMELSSLRSEDTAVYYCARYYGGNSYAFDIWGQGTMVTVSS VL: DIQMTQSPSSLSASVGDRVTITCRASESISPWVAWYQQKPGKAPKLLIYAASTLQSGVPSRFSGSGSGTDFTLTISSLQPEDFATYYCQQGTSTPYTFGQGTKLEIK , please. 15.6

Values were extracted from patent US20220106398A1.
